# tgt: human α4β2 (Homo sapiens, UniProt P17787+P43681)
# Construct: host or cells: SH-EP1
# Sequence (P43681 29-627 limits assumed): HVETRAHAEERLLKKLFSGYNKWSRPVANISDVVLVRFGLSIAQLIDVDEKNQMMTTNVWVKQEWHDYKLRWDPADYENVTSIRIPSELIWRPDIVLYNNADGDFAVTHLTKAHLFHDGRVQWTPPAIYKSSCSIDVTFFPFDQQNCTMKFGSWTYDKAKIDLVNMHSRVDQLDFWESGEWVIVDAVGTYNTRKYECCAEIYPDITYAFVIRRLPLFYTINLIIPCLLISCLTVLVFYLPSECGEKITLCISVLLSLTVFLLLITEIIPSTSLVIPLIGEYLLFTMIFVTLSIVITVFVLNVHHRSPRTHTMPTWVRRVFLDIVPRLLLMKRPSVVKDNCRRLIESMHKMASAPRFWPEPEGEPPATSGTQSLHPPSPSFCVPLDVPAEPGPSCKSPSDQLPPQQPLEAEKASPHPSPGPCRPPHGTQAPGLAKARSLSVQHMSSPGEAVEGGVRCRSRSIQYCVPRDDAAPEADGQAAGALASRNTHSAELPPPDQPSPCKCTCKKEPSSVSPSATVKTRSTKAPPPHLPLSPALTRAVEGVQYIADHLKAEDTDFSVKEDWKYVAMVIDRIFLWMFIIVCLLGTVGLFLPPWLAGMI
# Sequence (P17787 26-502): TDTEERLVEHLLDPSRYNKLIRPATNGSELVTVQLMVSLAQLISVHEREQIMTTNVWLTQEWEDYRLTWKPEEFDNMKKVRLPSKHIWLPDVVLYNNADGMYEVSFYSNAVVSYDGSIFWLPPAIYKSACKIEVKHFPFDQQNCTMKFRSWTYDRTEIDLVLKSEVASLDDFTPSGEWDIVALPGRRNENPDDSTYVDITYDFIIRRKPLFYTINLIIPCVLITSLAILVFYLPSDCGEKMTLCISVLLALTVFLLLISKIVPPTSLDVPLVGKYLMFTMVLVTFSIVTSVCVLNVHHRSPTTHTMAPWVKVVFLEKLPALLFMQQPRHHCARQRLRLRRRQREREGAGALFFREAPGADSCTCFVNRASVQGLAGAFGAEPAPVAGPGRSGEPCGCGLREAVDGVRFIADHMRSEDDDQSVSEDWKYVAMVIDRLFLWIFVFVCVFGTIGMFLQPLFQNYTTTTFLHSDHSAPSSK
# assay: Calcium flux functional assay, inhibition of nicotine response in SH-EP1-human α4β2 cells
# Assay type: cell-based
# details: 37C/LS, nicotine 1 μM; read-out: Human α4β2 Ca Flux IC50 [37C/LS]
Reported pIC50 values for a set of compounds
Would you please state pIC50, meaning minus log10 of the concentration in mol/L, as a bare number?

Use the examples below as a reference point.
CN(C)C1C2(CCC2)[C@@H]2CC[C@@]1(C)C2(C)C (stereo partly shown) [drawing 38] | 6.42
CNC1C2(CCC2)[C@@H]2CC[C@@]1(C)C2(C)C (stereo partly shown) [drawing 33] | 6.22
CNC1(C)C2CCC(C2)C12CC2 (stereo not shown) | 6.92

IN: Can you look up the measured pIC50 of CNC1(C)C2CCC(C2)C12CCCC2 (stereo not shown) for me?
OUT: 6.92

* * *

# tgt: human α4β2 (Homo sapiens, UniProt P17787+P43681)
# Construct: host or cells: SH-EP1
# assay: Calcium flux functional assay, inhibition of nicotine response in SH-EP1-human α4β2 cells
# Format: cell-based
# details: 37C/LS, nicotine 1 μM; read-out: Human α4β2 Ca Flux IC50 [37C/LS]
measurement-name: pIC50
Would you please state pIC50, meaning minus log10 of the concentration in mol/L, as a bare number?

CNC1(C)C2CCC(CC2)C12CCCC2 (centres unmarked) | 6.40
CNC1C2(CCC2)[C@H]2CC[C@]1(C)C2(C)C (some centres unmarked) [drawing 32] | 6.37
CN(C)C1C2CCC(C2)C12CCC2 (centres unmarked) | 6.21
CNC1C2(CCC2)[C@H]2CC[C@]1(C)C2(C)C (some centres unmarked) [drawing 31] | 6.30
CNC1C2CCC(C2)C12CCC2 (centres unmarked) | 6.30
CN(C)C1C2(CCC2)[C@@H]2CC[C@@]1(C)C2(C)C (some centres unmarked) [drawing 37] | 6.55
CN(C)C1C2(CCC2)[C@H]2CC[C@]1(C)C2(C)C (some centres unmarked) [drawing 35] | 6.28
CNC1C2CCC(C2)C12CC2 (centres unmarked) | 6.24

IN: State its pIC50 on human α4β2 (Homo sapiens, UniProt P17787+P43681): CNC1C2(CCC2)[C@@H]2CC[C@@]1(C)C2(C)C (some centres unmarked) [drawing 34]
OUT: 6.57

IN: State its pIC50 on human α4β2 (Homo sapiens, UniProt P17787+P43681): C1CN(C2C3CCC(C3)C23CCC3)C1 (centres unmarked)
OUT: 6.13

IN: State its pIC50 on human α4β2 (Homo sapiens, UniProt P17787+P43681): CN(C)C1C2(CCC2)[C@H]2CC[C@]1(C)C2(C)C (some centres unmarked) [drawing 36]
OUT: 6.46

* * *

Reported Human α4β2 Ca Flux Imax [29C/HS] values for a set of compounds
# tgt: human α4β2 (Homo sapiens, UniProt P17787+P43681)
# Construct: host or cells: SH-EP1
# assay: Calcium flux functional assay, inhibition of nicotine response in SH-EP1-human α4β2 cells
# Type: cell-based
# details: 29C/HS (29° C.-treated SH-EP1-human α4β2 cells), nicotine 1 μM
Answer format: numeric, % inh implied, no suffix.

CNC1C2(CCC2)[C@@H]2CC[C@@]1(C)C2(C)C (stereo partly drawn) [drawing 34] | 97

IN: State its Human α4β2 Ca Flux Imax [29C/HS] on human α4β2 (Homo sapiens, UniProt P17787+P43681): CN[C@@]1(C)[C@@H]2CC[C@@H](C2)C12CCC2 (single isomer, unassigned) [drawing 29]
OUT: 98

IN: State its Human α4β2 Ca Flux Imax [29C/HS] on human α4β2 (Homo sapiens, UniProt P17787+P43681): CN[C@@]1(C)[C@@H]2CC[C@@H](C2)C12CCC2 (single isomer, unassigned) [drawing 30]
OUT: 98

IN: State its Human α4β2 Ca Flux Imax [29C/HS] on human α4β2 (Homo sapiens, UniProt P17787+P43681): CN(C)C1C2(CCC2)[C@H]2CC[C@]1(C)C2(C)C (stereo partly drawn) [drawing 36]
OUT: 96

IN: State its Human α4β2 Ca Flux Imax [29C/HS] on human α4β2 (Homo sapiens, UniProt P17787+P43681): CN(C)C1C2(CCC2)[C@@H]2CC[C@@]1(C)C2(C)C (stereo partly drawn) [drawing 38]
OUT: 95

IN: State its Human α4β2 Ca Flux Imax [29C/HS] on human α4β2 (Homo sapiens, UniProt P17787+P43681): CNC1C2(CCC2)[C@H]2CC[C@]1(C)C2(C)C (stereo partly drawn) [drawing 32]
OUT: 98
